src = patent US20140178332A1

System: T1, recombinant purified human IL-12 p70 (human, UniProt P29459 23-219)
T1 construct: Disulfide-linked heterodimer of p35 and p40; also called hIL-12; Hu IL-12
T1 sequence 1: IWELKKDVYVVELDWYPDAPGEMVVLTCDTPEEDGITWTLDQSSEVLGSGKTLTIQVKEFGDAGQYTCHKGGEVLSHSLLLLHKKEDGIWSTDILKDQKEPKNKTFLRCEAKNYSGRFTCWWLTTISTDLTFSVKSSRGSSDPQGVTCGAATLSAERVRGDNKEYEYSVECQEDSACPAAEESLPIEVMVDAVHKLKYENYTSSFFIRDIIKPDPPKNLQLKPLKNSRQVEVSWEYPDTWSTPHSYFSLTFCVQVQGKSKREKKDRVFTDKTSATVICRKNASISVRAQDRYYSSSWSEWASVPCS
T1 sequence 2: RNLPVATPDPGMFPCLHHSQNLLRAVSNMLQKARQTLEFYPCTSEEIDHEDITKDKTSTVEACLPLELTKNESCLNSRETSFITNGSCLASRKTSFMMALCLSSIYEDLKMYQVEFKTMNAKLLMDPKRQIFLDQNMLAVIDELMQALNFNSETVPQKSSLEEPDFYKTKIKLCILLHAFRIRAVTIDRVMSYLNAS
Assay Name: SPR (BIAcore) as in Example 1.1.B
Reported Endpoint: kon (M⁻¹ s⁻¹)

1) anti-IL-12p40 hybrid antibody 1D4.4 (antibody, human IgG1, kappa, L234A L235A, V domains shown) VH: EVTLRESGPALVKPTQTLTLTCTFSGFSLSKSVMGVSWIRQPPGKALEWLAHIYWDDDKYYNPSLKSRLTISKDTSKNQVVLTMTNMDPVDTATYYCARRGIRSAMDYWGQGTTVTVSS VL: SVVMTQTPKFLLVSAGDRVTITCKASQSVSNDVAWYQQKPGQSPKLLIYYASNRYTGVPDRFTGSGYGTDFTFIISTVRAEDLAVYFCQQDYNSPWTFGGGTKLEIKR	280000
